Hello, the source for this data is patent US20210340217A1, in case you need it.

target or system: HLA-B*07:02 (Homo sapiens)
experiment description: MHC binding assay (UV-ligand exchange, beta2m ELISA)
assay conditions: peptide exchange yield
experimental readout: Peptide exchange

Below: 6 substances and their reported Peptide exchange.
substance 386 (FPFNPLDF; listed as Homo sapiens) [compound 386] , Peptide exchange observed: “++” (>20% = ++)

Entry 317 (FPFQPGSV; listed as Homo sapiens) [compound 317] — recorded Peptide exchange = “+++” (>50 = +++)

Measured Peptide exchange of 331 (FPHPEMTTSM; listed as Homo sapiens) [compound 331] : “+++” (>50 = +++)

Reported Peptide exchange of 330 (FPFVTGSTEM; listed as Homo sapiens) [compound 330] : “++” (>20% = ++)

Query 35 (FPDNQRPAL; listed as Homo sapiens) [compound 35] yields Peptide exchange of “+++” (>50 = +++)

Field Peptide exchange (entry 375 (AAASPLLLL; listed as Homo sapiens) [compound 375] ) reads “++” (>20% = ++)

Field: next substance
Memo: 354 (SPLPVTSLL; listed as Homo sapiens) [compound 354] , reported Peptide exchange: “+++” (>50 = +++)

###

target or system: HLA-B*07:02 (Homo sapiens)
experiment description: MHC binding assay (UV-ligand exchange, beta2m ELISA)
assay conditions: peptide exchange yield
experimental readout: Peptide exchange

Worked cases, answers included:
Quick note, Peptide exchange for 365 (TPLATTQRFTY; listed as Homo sapiens) [compound 365] landed at “++” (>20% = ++)

Per the records, this substance ( 144 (SPSPVSSTL; listed as Homo sapiens) [compound 144] ) has Peptide exchange equal to “+++” (>50 = +++)

So for 378 (RPRSPAGQVAA; listed as Homo sapiens) [compound 378] , the logged Peptide exchange turned out to be “+++” (>50 = +++)

Peptide exchange measured on 143 (SPAMTSTSF; listed as Homo sapiens) [compound 143] = “++” (>20% = ++)

***
The recorded Peptide exchange for entry 343 (LPSVSGVKTTF; listed as Homo sapiens) [compound 343] equals “++” (>20% = ++)

Entry under test: 368 (VPTPVFPTM; listed as Homo sapiens) [compound 368] . Its Peptide exchange was “++” (>20% = ++)

Briefly, Peptide exchange measured for 294 (YPLRGSSIF; listed as Homo sapiens) [compound 294] : “+++” (>50 = +++)

Sample 362 (SPVPVTSLF; listed as Homo sapiens) [compound 362] ; Peptide exchange observed: “+++” (>50 = +++)

Peptide exchange recorded for this substance, 385 (SPALHIGSV; listed as Homo sapiens) [compound 385] , is “+++” (>50 = +++)

Peptide exchange for 319 (SPAEPSVYATL; listed as Homo sapiens) [compound 319] is “++++” (>75% = ++++)

Peptide exchange reported for this substance 38 (SPHPVTALLTL; listed as Homo sapiens) [compound 38] : “+++” (>50 = +++)

Form: substance = 345 (LPTSESLVSF; listed as Homo sapiens) [compound 345] ; Peptide exchange = “++” (>20% = ++)

The substance listed as 355 (SPLVTSHIM; listed as Homo sapiens) [compound 355] has a reported Peptide exchange of “+++” (>50 = +++)

# Peptide exchange (substance: 363 (TAKTPDATF; listed as Homo sapiens) [compound 363] ) is “++” (>20% = ++)

For this substance ( 323 (RPMPNLRSV; listed as Homo sapiens) [compound 323] ), measured Peptide exchange is “+++” (>50 = +++)

// recorded Peptide exchange for 304 (LPRPGAVL; listed as Homo sapiens) [compound 304] : “+++” (>50 = +++)

// 342 (LPLGTSMTF; listed as Homo sapiens) [compound 342] : Peptide exchange value = “+++” (>50 = +++)

Note to self: Peptide exchange recorded for 130 (FPRLVGPDF; listed as Homo sapiens) [compound 130] was “+++” (>50 = +++)

Entry 360 (SPSVSSNTY; listed as Homo sapiens) [compound 360] — recorded Peptide exchange = “++” (>20% = ++)

// sample 349 (MPSLSEAMTSF; listed as Homo sapiens) [compound 349] , its Peptide exchange was “+++” (>50 = +++)

The recorded Peptide exchange for 359 (SPSTIKLTM; listed as Homo sapiens) [compound 359] is “+++” (>50 = +++)

Consider 374 (NPIGDTGVKF; listed as Homo sapiens) [compound 374] . Its measured Peptide exchange is “+++” (>50 = +++)

For reference, reported Peptide exchange for 369 (FPHSEMTTV; listed as Homo sapiens) [compound 369] stands at “+++” (>50 = +++)

The substance identified as 298 (YPTEHVQF; listed as Homo sapiens) [compound 298] registered its Peptide exchange at “++” (>20% = ++)

The substance identified as 308 (YPEGAAYEF; listed as Homo sapiens) [compound 308] registered its Peptide exchange at “++” (>20% = ++)

Entry 303 (LPMWKVTAF; listed as Homo sapiens) [compound 303] ; Peptide exchange = “+++” (>50 = +++)

Quick note, Peptide exchange for 353 (SPAMTTPSL; listed as Homo sapiens) [compound 353] landed at “+++” (>50 = +++)

// Peptide exchange lookup, substance = 371 (LYVDGFTHW; listed as Homo sapiens) [compound 371] , result: “++” (>20% = ++)

###

target or system: HLA-A*01:01 (Homo sapiens, UniProt P04439, A114D/A174V/A182V/D101N/D185E/E176A/E190D/L180R/Q94H/R68K/S129P/T187R/V100A/V91M/W191G)
experiment description: MHC binding assay (UV-ligand exchange, beta2m ELISA)
assay conditions: peptide exchange yield
experimental readout: Peptide exchange

Item: 288 (SPVTSVHGGTY; listed as Homo sapiens) [compound 288] | Peptide exchange: ++ (>20% = ++)

Note to self: Peptide exchange recorded for 292 (NVTMKVVSVLY; listed as Homo sapiens) [compound 292] was +++ (>50 = +++)

Entry 114 (VMEQSAGIMY; listed as Homo sapiens) [compound 114] ; Peptide exchange = ++ (>20% = ++)

Looking up 112 (TVTGAEQIQY; listed as Homo sapiens) [compound 112] , I see its Peptide exchange listed as ++ (>20% = ++)

// recorded Peptide exchange for 290 (DMDEEIEAEY; listed as Homo sapiens) [compound 290] : ++ (>20% = ++)

Next:
Quick note, Peptide exchange for 113 (QLDSNRLTY; listed as Homo sapiens) [compound 113] landed at +++ (>50 = +++)

The recorded Peptide exchange for 291 (ETIRSVGYY; listed as Homo sapiens) [compound 291] is +++ (>50 = +++)

Short answer for 116 (VLLDEGAMLLY; listed as Homo sapiens) [compound 116] : Peptide exchange was ++ (>20% = ++)

Documented Peptide exchange of 115 (FVDNQYWRY; listed as Homo sapiens) [compound 115] : +++ (>50 = +++)

The substance listed as 289 (RWEKTDLTY; listed as Homo sapiens) [compound 289] shows Peptide exchange equal to ++ (>20% = ++)

###

target or system: HLA-A*03:01 (Homo sapiens, UniProt P04439)
experiment description: MHC binding assay (UV-ligand exchange, beta2m ELISA)
assay conditions: peptide exchange yield
experimental readout: Peptide exchange

Observe how each entry below is paired with its result.
Item: 273 (RVNAIPFTY; listed as Homo sapiens) [compound 273] | System: HLA-A*03:01 (Homo sapiens, UniProt P04439) | Peptide exchange: +++ (>50 = +++)

So the reported Peptide exchange for 86 (VVLLGSLFSRK; listed as Homo sapiens) [compound 86] , on HLA-A*03:01 (Homo sapiens, UniProt P04439), turned out to be ++ (>20% = ++)

Case 28 (KTYETNLEIKK; listed as Homo sapiens) [compound 28] , HLA-A*03:01 (Homo sapiens, UniProt P04439), Peptide exchange recorded as +++ (>50 = +++)

Observed Peptide exchange on HLA-A*03:01 (Homo sapiens, UniProt P04439), entry 257 (VTADHSHVF; listed as Homo sapiens) [compound 257] , equals + (>10% = +)

22 (SLKERNPLK; listed as Homo sapiens) [compound 22] tested on HLA-A*03:01 (Homo sapiens, UniProt P04439) gave Peptide exchange: ++ (>20% = ++)

Continuing:
The reported Peptide exchange value, HLA-A*03:01 (Homo sapiens, UniProt P04439), for 85 (VLLGSLFSRK; listed as Homo sapiens) [compound 85] reads ++ (>20% = ++)

Entry 287 (RRIHTGEKPYK; listed as Homo sapiens) [compound 287] , HLA-A*03:01 (Homo sapiens, UniProt P04439) data, Peptide exchange value: ++ (>20% = ++)

Item 281 (RAKELEATF; listed as Homo sapiens) [compound 281] was tested on HLA-A*03:01 (Homo sapiens, UniProt P04439); the reported Peptide exchange is + (>10% = +)
